TARGET_OF_ASSAY: SARS-CoV2 S1 protein (S1 domain of the spike protein) (SARS-Cov-2, UniProt P0DTC2 16-685)
I'd appreciate it if you could supply Kd values for the items below.
Field format: number, assumed nM, no unit text.

Looking up 212522 (SEQ ID NO: 19) (designed binder) IAAKFDEAQQAAFYEILHLPNLTELQRNWFIQLLRDDPSVSLQVLGHAQYLNDSQAPKIAAKFDEAQQYAFYQILHLHNLTEEQRNAFIQSLRDDPSVSHEVLGEAKKLNESQAPK , I see its Kd listed as 24.1

// Kd lookup, binder = 212434 (SEQ ID NO: 1) (designed binder) NAAVLDIAQHSATEEIWWLPNLTKQQKVWFIMSLTQDPSVSKEVLGEAQKLNDSQAPK , result: 3.8

This collection of values is drawn from patent US20240117010A1.
